Type: in vivo, human
Details: both, human, plasma, po, 50 mg, Cmax, total plasma acalabrutinib; single oral 50-mg dose, fasted; Control, normal hepatic function (n = 14); geometric mean (geometric CV%)
readout.name: Cmax (ng/mL)
The figure you give is taken to be in ng/mL; do not add the unit.

Param item = `CC#CC(=O)N1CCC[C@H]1c1nc(-c2ccc(C(=O)Nc3ccccn3)cc2)c2c(N)nccn12` ; retrieve measured Cmax. 152

====

Assay type: in vivo, human
Details: both, human, plasma, po, 50 mg, Vz/F, acalabrutinib; single oral 50-mg dose; Mild (n = 6); arithmetic mean (SD)
readout.name: Vd/F (L)
The figure you give is taken to be in L; do not add the unit.

Param item = CC#CC(=O)N1CCC[C@H]1c1nc(-c2ccc(C(=O)Nc3ccccn3)cc2)c2c(N)nccn12 [Acalabrutinib] ; retrieve measured Vd/F. 471
